test: log k'80 PLRP-S chromatographic lipophilicity; assay type: physicochemical; conditions: 80% ACN / 20% 20 mM ammonium acetate, pH 7.0
PROPERTY NAME: log k'80 PLRP-S

Check out these entries, answers already filled in.
Prompt: // query log k'80 PLRP-S value for entry Cc1ncsc1-c1ccc([C@H](C[C@H](C)CN2CCC(c3ccc4c(c3)n(C3CCCC3)c3nc(=O)c5c(Br)cccc5n43)CC2)NC(=O)[C@@H]2C[C@@H](O)CN2C(=O)[C@@H](NC(=O)C2(F)CC2)C(C)(C)C)cc1 [A3-2]
Completion: 0.18

Prompt: Same for Cc1ncsc1-c1ccc([C@H](CCCCCN2CCC(c3ccc4c(c3)n(C3CCCC3)c3nc(=O)c5c(Br)cccc5n43)CC2)NC(=O)[C@@H]2C[C@@H](O)CN2C(=O)[C@@H](NC(=O)C2(F)CC2)C(C)(C)C)cc1 [A5-1]
Completion: 0.03

Prompt: Same for Cc1ncsc1-c1ccc([C@H](CCCN2CCC(c3ccc4c(c3)n(C3CCCC3)c3nc(=O)c5c(Br)cccc5n43)CC2)NC(=O)[C@@H]2C[C@@H](O)CN2C(=O)[C@@H](NC(=O)C2(F)CC2)C(C)(C)C)cc1 [A3-1]
Completion: 0.07

Prompt: Same for Cc1ncsc1-c1ccc([C@H](CO[C@H](C)CN2CCC(c3ccc4c(c3)n(C3CCCC3)c3nc(=O)c5c(Br)cccc5n43)CC2)NC(=O)[C@@H]2C[C@@H](O)CN2C(=O)[C@@H](NC(=O)C2(F)CC2)C(C)(C)C)cc1 [B-2]
Completion: 0.05

Prompt: Same for Cc1ncsc1-c1ccc([C@H](COC(C)(C)CN2CCC(c3ccc4c(c3)n(C3CCCC3)c3nc(=O)c5c(Br)cccc5n43)CC2)NC(=O)[C@@H]2C[C@@H](O)CN2C(=O)[C@@H](NC(=O)C2(F)CC2)C(C)(C)C)cc1 [B-4]
Completion: 0.11

A = Cc1ncsc1-c1ccc([C@H](COCCN2CCC(c3ccc4c(c3)n(C3CCCC3)c3nc(=O)c5c(Br)cccc5n43)CC2)NC(=O)[C@@H]2C[C@@H](O)CN2C(=O)[C@@H](NC(=O)C2(F)CC2)C(C)(C)C)cc1 [B-1]
B = Cc1ncsc1-c1ccc([C@H](C[C@@H](C)CN2CCC(c3ccc4c(c3)n(C3CCCC3)c3nc(=O)c5c(Br)cccc5n43)CC2)NC(=O)[C@@H]2C[C@@H](O)CN2C(=O)[C@@H](NC(=O)C2(F)CC2)C(C)(C)C)cc1 [A3-3]
C = Cc1ncsc1-c1ccc([C@@H](CC[C@@H](C)CCN2CCC(c3ccc4c(c3)n(C3CCCC3)c3nc(=O)c5c(Br)cccc5n43)CC2)NC(=O)[C@@H]2C[C@@H](O)CN2C(=O)[C@@H](NC(=O)C2(F)CC2)C(C)(C)C)cc1 [A5-4]
D = Cc1ncsc1-c1ccc([C@H](CO[C@@H](C)CN2CCC(c3ccc4c(c3)n(C3CCCC3)c3nc(=O)c5c(Br)cccc5n43)CC2)NC(=O)[C@@H]2C[C@@H](O)CN2C(=O)[C@@H](NC(=O)C2(F)CC2)C(C)(C)C)cc1 [B-3]
E = Cc1ncsc1-c1ccc([C@H](CC[C@H](C)CCN2CCC(c3ccc4c(c3)n(C3CCCC3)c3nc(=O)c5c(Br)cccc5n43)CC2)NC(=O)[C@@H]2C[C@@H](O)CN2C(=O)[C@@H](NC(=O)C2(F)CC2)C(C)(C)C)cc1 [A5-2]
Prompt: Put the molecules in ascending order of log k'80 PLRP-S. Arrange the labels as the request states and list them.
Completion: A, D, C, E, B
(A: 0.05, D: 0.08, C: 0.14, E: 0.22, B: 0.32)

The reported numbers originate from paper PMC12362582.
